# procedureSummary: Displacement of [3H]IMI from Drosophila melanogaster brain nAChR
pKi: −log10 of the molar value.

{"columns": ["mol", "pKi"],
 "data": [
  ["O=[N+]([O-])/N=C1/N(CCCCCCCCN2CCN(Cc3ccc(Cl)nc3)/C2=N\\[N+](=O)[O-])CCN1Cc1ccc(Cl)nc1", 6.06],
  ["O=[N+]([O-])/N=C1/N(C/C=C/C=C/CN2CCN(Cc3ccc(Cl)nc3)/C2=N\\[N+](=O)[O-])CCN1Cc1ccc(Cl)nc1", 6.01],
  ["O=[N+]([O-])/N=C1/N(CCCCCCN2CCN(Cc3ccc(Cl)nc3)/C2=N\\[N+](=O)[O-])CCN1Cc1ccc(Cl)nc1", 6.17],
  ["O=[N+]([O-])/N=C1/N(CC/C=C/CCN2CCN(Cc3ccc(Cl)nc3)/C2=N\\[N+](=O)[O-])CCN1Cc1ccc(Cl)nc1", 5.60]
]}

Source of measurements: ChEMBL document CHEMBL1136998
